System: PTEN-P2/GFP prostate cancer cells
Assay: Effect of 1,4-naphthoquinone analogs on PTEN-P2/GFP cell proliferation (WST-1 cell viability, 24 h)
Type: cell-based
Conditions: Mus musculus, 1.2 μM, WST-1, medium with 10% FBS and DHT, read-out: PTEN-P2/GFP cell proliferation, percent of control
This listing pairs compounds with measured activity at 1.2 µM.
All answers are understood in %, so give the number only.

Completed entries (count: 6):
| smiles notation | units | assay value |
| --- | --- | --- |
| O=C1C(Oc2ccc(O)cc2)=C(Oc2ccc(O)cc2)C(=O)c2ccccc21 | % | 111 |
| O=C1C=C(Oc2ccc([N+](=O)[O-])cc2)C(=O)c2ccccc21 | % | 122 |
| O=C1C=C(Oc2ccc(Cl)cc2Cc2ccccc2)C(=O)c2ccccc21 | % | 129 |
| O=C1C(Oc2c(F)cc(F)cc2F)=C(Oc2c(F)cc(F)cc2F)C(=O)c2ccccc21 | % | 91.2 |
| O=C1C=C(Oc2cc(F)cc(F)c2)C(=O)c2ccccc21 | % | 97 |
| COc1ccc(OC2=CC(=O)c3ccccc3C2=O)cc1 | % | 102 |

Let us move to another entry and its activity at 1.2 µM.
I would be grateful if you could share the reported activity at 1.2 µM for "O=C1C=C(Oc2ccc(OCc3ccccc3)cc2)C(=O)c2ccccc21" .
99.8
